// provenance: patent US6784175B2

- STUDY_SYSTEM: (+)-MK801 binding site of the ionotropic NMDA receptor
- RUN_DESCRIPTION: (3H)-(+)-MK801 receptor bonding test on rat cerebral membrane homogenates
- TEST_PARAMETERS: calculated from IC50 by Cheng-Prusoff equation; 1 nmol/l (3H)-(+)-MK801; rat brain membrane homogenate
Parameter Ki: see the listing below.
MEASURE: Ki (nM)

>>> df
                                    compound  result
 0  Cc1ccccc1CCC1(O)CCCCC1C(c1ccccc1C)N(C)C.Cl (stereo not shown) [Example 39, hydrochloride]    1400
 1  CN(C)C(c1ccc(F)cc1Cl)C1CCCCC1(O)CCc1ccccc1F.Cl (stereo not shown) [Example 41, hydrochloride]    1200
 2  CN(C)C(c1ccccc1Cl)C1CCCCC1(O)CCc1cccc(F)c1.Cl (stereo not shown) [Example 11, hydrochloride]    2100
 3  CN(C)C(c1ccccc1F)C1CCCCC1(O)CCc1ccc(F)cc1.Cl (stereo not shown) [Example 17, hydrochloride]    5800
 4  CN(C)C(c1ccccc1Cl)C1CCCCC1(O)CCc1ccccc1F.Cl (stereo not shown) [Example 10, hydrochloride]     400
 5  CN(C)C(c1ccc(F)cc1Cl)C1CCCCC1(O)CCc1ccccc1Cl.Cl (stereo not shown) [Example 42, hydrochloride]    2000
 6  CN(C)C(c1ccccc1F)C1CCCCC1(O)CCc1ccccc1F.Cl (stereo not shown) [Example 29, hydrochloride]     300
 7  Cc1ccccc1CCC1(O)CCCCC1C(c1ccccc1Br)N(C)C.Cl (stereo not shown) [Example 38, hydrochloride]    2300
 8  COc1cccc(C(C2CCCCC2(O)CCc2ccccc2)N(C)C)c1.Cl (stereo not shown) [Example 4, hydrochloride]    6200
 9  CN(C)C(c1ccccc1)C1CCCCC1(O)CCc1cccc(Cl)c1.Cl (stereo not shown) [Example 13, hydrochloride]    3100
10  CN(C)C(c1ccccc1F)C1CCCCC1(O)CCCc1ccccc1.Cl (stereo not shown) [Example 44, hydrochloride]    1400
11  CN(C)C(c1ccccc1)C1CCCCC1(O)CCc1ccccc1Cl.Cl (stereo not shown) [Example 12, hydrochloride]    1500
12  CN(C)C(c1ccccc1Br)C1CCCCC1(O)CCc1ccccc1.Cl (stereo not shown) [Example 3, hydrochloride]    1700
13  CN(C)C(c1ccccc1Br)C1CCCCC1(O)CCc1ccccc1F.Cl (stereo not shown) [Example 34, hydrochloride]     400
14  CN(C)C(c1ccccc1F)C1CCCCC1(O)CCc1ccccc1Cl.Cl (stereo not shown) [Example 19, hydrochloride]     800
15  Cc1ccccc1C(C1CCCCC1(O)CCc1ccccc1Cl)N1CCCCC1.Cl (stereo not shown) [Example 25, hydrochloride]    1400
16  Cc1ccccc1CCC1(O)CCCCC1C(c1ccccc1Cl)N(C)C.Cl (stereo not shown) [Example 35, hydrochloride]    1800
17  Cc1ccccc1C(C1CCCCC1(O)CCc1ccccc1Cl)N1CCCC1.Cl (stereo not shown) [Example 23, hydrochloride]     400
18  CN(C)C(c1ccccc1F)C1CCCCC1(O)CCc1cccc(Cl)c1.Cl (stereo not shown) [Example 21, hydrochloride]    2100
19  Cc1ccccc1CCC1(O)CCCCC1C(c1ccccc1)N(C)C.Cl (stereo not shown) [Example 37, hydrochloride]    1800
20  COc1ccccc1C(C1CCCCC1(O)CCc1ccccc1F)N(C)C.Cl (stereo not shown) [Example 28, hydrochloride]    2500
21  Cc1ccccc1C(C1CCCCC1(O)CCc1ccccc1F)N1CCCC1.Cl (stereo not shown) [Example 31, hydrochloride]     100
22  Cc1ccccc1C(C1CCCCC1(O)CCc1ccccc1Cl)N1CCOCC1.Cl (stereo not shown) [Example 24, hydrochloride]    3700
23  Cc1ccccc1C(C1CCCCC1(O)CCc1ccccc1F)N(C)C.Cl (stereo not shown) [Example 30, hydrochloride]     300
24  CN(C)C(c1ccccc1Cl)C1CCCCC1(O)CCc1ccc(F)cc1.Cl (stereo not shown) [Example 9, hydrochloride]    3800
25  CN(C)C(c1cccc(F)c1)C1CCCCC1(O)CCc1ccccc1Cl.Cl (stereo not shown) [Example 22, hydrochloride]    3000
26  Cc1ccccc1C(C1CCCCC1(O)CCc1ccccc1)N(C)C.Cl (stereo not shown) [Example 5, hydrochloride]    1300
27  CN(C)C(c1ccccc1Cl)C1CCCCC1(O)CCCc1ccccc1.Cl (stereo not shown) [Example 36, hydrochloride]    1900
